CONDITION INFO: in acetone, 323.15 K
PARAMETER MEASURED: solubility (mole fraction)

Exam item: Sample COC(=O)[C@@H](N)CC(C)C.Cl — what was its solubility (mole fraction)?
Marked response: 0.0172

----------
CONDITION INFO: in dimethyl carbonate, 323.15 K
PARAMETER MEASURED: solubility (mole fraction)
Give bare numbers.

Exam item: Sample COC(=O)[C@@H](N)CC(C)C.Cl — what was its solubility (mole fraction)?
Marked response: 0.00213

----------
CONDITION INFO: in n-propyl acetate, 303.15 K
PARAMETER MEASURED: solubility (mole fraction)
One number for each entry.

Exam item: Sample COC(=O)[C@@H](N)CC(C)C.Cl — what was its solubility (mole fraction)?
Marked response: 0.00234

Numbers sourced from BigSolDB 2.1.
